The values you see were collected from the supplement of paper PMC10567573.

B1: PHTF1 (parent)
chain: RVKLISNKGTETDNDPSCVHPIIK

variants of: B1; test: protein stability index of a GFP-peptide fusion (GPS, HEK-293T) (PSI 1-6); higher = more stable; settings: c terminus: a fixed tail appended;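 also: lentivirally expressed fusions sorted by FACS into six bins by GFP to DsRed ratio, PSI derived from sequencing read proportions per bin multiplied by bin number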
valueType: protein stability index
# respond with the number and nothing more

Worked set:
> print(dat)
                 constructsequence  measuredvalue
1   RVVLISNKGTETDNDPSCVHPIIK [K3V]           3.29
2   RCKLISNKGTETDNDPSCVHPIIK [V2C]           4.02
3  RVKLISNKGTETDNDPSCVHPIID [K24D]           4.22
4  RVKLISNKGTETDNDPSCVHPIIC [K24C]           3.36
5  RVKLISNKGFETDNDPSCVHPIIK [T10F]            3.1

// below: protein stability index requested for another variant
Problem: Let me know recorded protein stability index for RVKLISNKMTETDNDPSCVHPIIK [G9M] , thanks.
Result: 3.75
